src = ChEMBL document CHEMBL1914442

assay: physchem; settings: octanol/water, pH 7.4
Assay Metric: logD

As a guide, the following entries are already answered.
>  <Smiles Entry>
NC(=O)[C@@H](CCC(F)(F)F)N(C[C@@H]1CCCCO1)S(=O)(=O)c1ccc(Cl)cc1

>  <Test Result>
4.3

$$$$
>  <Smiles Entry>
NC(=O)[C@@H](CCC(F)(F)F)N(C[C@@H]1CCO1)S(=O)(=O)c1ccc(Cl)cc1

>  <Test Result>
2.6

$$$$
>  <Smiles Entry>
NC(=O)[C@@H](CCC(F)(F)F)N(C[C@H]1CCO1)S(=O)(=O)c1ccc(Cl)cc1

>  <Test Result>
2.6

$$$$

[A] NC(=O)[C@@H](CCC(F)(F)F)N(C[C@H]1CCCCO1)S(=O)(=O)c1ccc(Cl)cc1
[B] NC(=O)[C@@H](CCC(F)(F)F)N(C[C@@H]1COCCO1)S(=O)(=O)c1ccc(Cl)cc1
Prompt: Name the one with the greater logD value, either A or B as given. Refer to your chosen item by its label in the answer.
Completion: A
(A: 4.3, B: 2.75)
